- Assay notes: NCI Yeast Anticancer Drug Screen. Data for the mlh1 rad18 strain (AID 175)
- Measurement conditions: S. cerevisiae mlh1 rad18 strain growth inhibition; at 50.0 µM (retest, dose inferred, filed as 5.0); active compounds read high
About 79,000 compounds went through this panel and 15% of them were active in at least one assay; those are over-represented in the sample as a whole.
Quantity measured: growth inhibition (%)

molecule=Cc1ccc(S(=O)(=O)Nc2ccccc2SSc2ccccc2NS(=O)(=O)c2ccc(C)cc2)cc1 quantity_measured="growth inhibition" number=77
molecule="CC(=O)C1C(=O)C=C(C)OC1=O (centres undefined)" quantity_measured="growth inhibition" number=23
molecule=CC(C)(c1cc(Br)c(O)c(Br)c1)c1cc(Br)c(O)c(Br)c1 quantity_measured="growth inhibition" number=97
molecule=NC(N)=NS(=O)(=O)c1ccc(N=Cc2c3ccccc3nc3cc(Cl)ccc23)cc1 quantity_measured="growth inhibition" number=-2
molecule="Oc1cc2c(cc1C(Nc1ncccn1)c1ccc(F)cc1)OCO2 (centres undefined)" quantity_measured="growth inhibition" number=74
molecule=C[C@]12C[C@H](c3ccccc3)Nc3ccccc3N1C(c1ccccc1)=NO2 quantity_measured="growth inhibition" number=88
molecule=CCCCCCCCCc1c(O)c(O)c(CCCCCCCCC)c(CCCCCCCCC)c1CCCCCCCCC quantity_measured="growth inhibition" number=38
molecule=CSCCOC(=O)c1cc(NC(=S)c2ccoc2C)ccc1Cl quantity_measured="growth inhibition" number=85
molecule=COc1c(C(=O)/C(=N/Nc2ccccc2)C(C)=O)c(O)c(OC)c2occc12 quantity_measured="growth inhibition" number=90
molecule=CCOc1ccc(C(=O)CCN2CCOCC2)cc1 quantity_measured="growth inhibition" number=35
molecule="C/C(=N/O)c1ccc2c(c1)C(C)c1ccccc1-2 (centres undefined)" quantity_measured="growth inhibition" number=-103
molecule=COC(=O)c1ccc2ccccc2c1 quantity_measured="growth inhibition" number=11
molecule=CCCC#CCCOC(=O)c1cc([N+](=O)[O-])cc([N+](=O)[O-])c1 quantity_measured="growth inhibition" number=98
molecule=COc1ccc(C(C)(C)c2cc3c(cc2OCCO)OCO3)cc1 quantity_measured="growth inhibition" number=94
molecule=CN1CCCN(C)C1c1cc([N+](=O)[O-])ccc1O quantity_measured="growth inhibition" number=99
molecule="Oc1ccccc1C1C=C(c2ccccc2)NC(N2CCCCC2)=C1c1nc2ccccc2[nH]1 (centres undefined)" quantity_measured="growth inhibition" number=-2
molecule=CC(C)(C)C(=O)CC(=O)C(F)(F)C(F)(F)C(F)(F)F.CC(C)(C)C(=O)CC(=O)C(F)(F)C(F)(F)C(F)(F)F.CC(C)(C)C(=O)CC(=O)C(F)(F)C(F)(F)C(F)(F)F.[Gd] quantity_measured="growth inhibition" number=93
molecule="C1=CC2OC2CCCCCCCC1 (mixture of isomers)" quantity_measured="growth inhibition" number=90
molecule="O=S(=O)(O)CC[S][Sn]([S]CCS(=O)(=O)O)([c]1ccccc1)[c]1ccccc1 (tested in a mixture with another compound)" quantity_measured="growth inhibition" number=96
molecule=O=C(O)c1c(Cl)c(Cl)c(Cl)c(Cl)c1-c1c2ccc(=O)cc-2oc2cc(O)ccc12 quantity_measured="growth inhibition" number=98
molecule=CCn1nc(-c2ccccc2)c2c1N(C)c1ccccc1-n1c(-c3ccccc3)nnc1-2 quantity_measured="growth inhibition" number=98
molecule=COC1=CC(=O)C(C#CCOCc2ccccc2)=CC1=O quantity_measured="growth inhibition" number=99
molecule=OC(C/C(=N\N=C(/CC(O)(C(F)(F)F)C(F)(F)F)c1ccccc1)c1ccccc1)(C(F)(F)F)C(F)(F)F quantity_measured="growth inhibition" number=3
molecule=Cc1ccccc1N1C(=O)C(=O)c2cccc(C)c21 quantity_measured="growth inhibition" number=99
